test: Pharmacokinetics of capsule, suspension and tablets in dogs (Example 3); format: in vivo, dog; conditions: dog, serum; male dogs, Day 0, Group 2: single oral 2 mg/kg, 0.3 mg/mL methylcellulose suspension, mean

- ITEM_SMILES: "CCc1nc2c(C)nc(C)cc2n1-c1ccc(CCNC(=O)NS(=O)(=O)c2ccc(C)cc2)cc1"
  Tmax (min): 47.2

====

assay: Pharmacokinetics of capsule, suspension and tablets in dogs (Example 3); assay type: in vivo, dog; conditions: dog, serum; male dogs, Day 0, Group 1: single oral 20 mg API in capsule, mean

- ITEM_SMILES: "CCc1nc2c(C)nc(C)cc2n1-c1ccc(CCNC(=O)NS(=O)(=O)c2ccc(C)cc2)cc1"
  Cmax: "804 ng/mL"

====

assay: Pharmacokinetics of capsule, suspension and tablets in dogs (Example 3); assay type: in vivo, dog; settings: dog, in vivo; male dogs, Day 0, Group 2: single oral 2 mg/kg, 0.3 mg/mL methylcellulose suspension, mean

- COMPOUND: "CCc1nc2c(C)nc(C)cc2n1-c1ccc(CCNC(=O)NS(=O)(=O)c2ccc(C)cc2)cc1 [grapiprant]"
  AUC(0-t), ng·h/mL: 1650

====

assay: Dose linearity and effect of feeding, PK in cats (Example 10); format: in vivo, cat; details: male, serum, po, 2 mg/kg, cats, Group 2, 2 mg/kg capsule, Fasted, Male, mean; read-out: t1/2 (converted)
REPORTED_ENDPOINT: half-life (h)

- COMPOUND: "CCc1nc2c(C)nc(C)cc2n1-c1ccc(CCNC(=O)NS(=O)(=O)c2ccc(C)cc2)cc1 [grapiprant]"
  MEASUREMENT_UNIT: "h"
  REPORTED_MEASUREMENT: 2.16

====

assay: Pharmacokinetics in cats FPK-13-004 (Example 13); type: in vivo, cat; details: both sexes, serum, 2.5 mg/animal; cats, single dose 2.5 mg (0.5 mg/kg), mean of all animals
REPORTED_ENDPOINT: AUC(0-t) (ng·h/mL)

- ITEM_SMILES: "CCc1nc2c(C)nc(C)cc2n1-c1ccc(CCNC(=O)NS(=O)(=O)c2ccc(C)cc2)cc1"
  MEASUREMENT_UNIT: "ng·h/mL"
  REPORTED_MEASUREMENT: 4190

====

assay: Dose linearity and effect of feeding, PK in cats (Example 10); assay type: in vivo, cat; settings: both sexes, serum, po, 10 mg/kg, Group 4 fasted cats, single oral 10 mg/kg capsule, males and females; read-out: mean AUC0-∞

- COMPOUND: "CCc1nc2c(C)nc(C)cc2n1-c1ccc(CCNC(=O)NS(=O)(=O)c2ccc(C)cc2)cc1 [grapiprant]"
  AUC(0-inf): "7580 to 10900 ng·h/mL"

====

assay: Pharmacokinetics of capsule, suspension and tablets in dogs (Example 3); type: in vivo, dog; settings: dog, serum; male dogs, Day 0, Group 2: single oral 2 mg/kg, 0.3 mg/mL methylcellulose suspension, mean

- COMPOUND: "CCc1nc2c(C)nc(C)cc2n1-c1ccc(CCNC(=O)NS(=O)(=O)c2ccc(C)cc2)cc1 [grapiprant]"
  Cmax (ng/mL): 751
